Target: T1, mouse serum albumin (MSA), full length (mouse, UniProt P07724 25-608)
T1 construct: mature; Immobilized on CM5 chip (SPR) or coated on plates (ELISA); also called mouse albumin; murine serum albumin
Assay: direct binding ELISA, coated MSA, anti-His-HRP
Set-up: unit not given here
Experimental: Direct binding ELISA assays were conducted as follows. Full length human and murine serum albumin at 10ug/ml in PBS were coated on Nunc Maxisorp plates overnight at 4° C. Plates were blocked in casein/PBS buffer. […] Bound Adnectin was detected by anti-His antibody conjugated with HRP (horseradish peroxidase) diluted 1:1500 in casein/PBS. Plates were developed with TMB substrate and absorbance read at 450 nm. […]
Assignment: determine reported MSA DB ELISA (OD450) Ymin obs for the given binders.
# answer = number (no unit)

Any idea what its MSA DB ELISA (OD450) Ymin obs is? The binder is ADX_6727_G01 (L41A) (designed binder, Full His6-tagged entry) MGVSDVPRDLEVVAATPTSLLISWDAPAVTVRYYRITYGREVQKYSDLGPAYIYQEFTVPGSKSTATISGLKPGVDYTITVYAVTGSGESPASSKPISINYRTEIDKPSQHHHHHH
3

How about ADX_6727_G10 (Y35S/K85A) (designed binder, Full His6-tagged entry) MGVSDVPRDLEVVAATPTSLLISWDAPAVTVRYYRITYGREVQKSSDLGPLYIYQEFTVPGSKSTATISGLKPGVDYTITVYAVTGSGESPASSAPISINYRTEIDKPSQHHHHHH ?
54

Lookup ADX_6727_H02 (I43S) (designed binder, Full His6-tagged entry) MGVSDVPRDLEVVAATPTSLLISWDAPAVTVRYYRITYGREVQKYSDLGPLYSYQEFTVPGSKSTATISGLKPGVDYTITVYAVTGSGESPASSKPISINYRTEIDKPSQHHHHHH
1

Then ADX_6727_G05 (I43S/K85A) (designed binder, Full His6-tagged entry) MGVSDVPRDLEVVAATPTSLLISWDAPAVTVRYYRITYGREVQKYSDLGPLYSYQEFTVPGSKSTATISGLKPGVDYTITVYAVTGSGESPASSAPISINYRTEIDKPSQHHHHHH ?
1

// same read-out, input: ADX_6727_F04 (Y44A/K85A) (designed binder, Full His6-tagged entry) MGVSDVPRDLEVVAATPTSLLISWDAPAVTVRYYRITYGREVQKYSDLGPLYIAQEFTVPGSKSTATISGLKPGVDYTITVYAVTGSGESPASSAPISINYRTEIDKPSQHHHHHH
2

Next entry: ADX_6727_B05 (I43S/K85T) (designed binder, Full His6-tagged entry) MGVSDVPRDLEVVAATPTSLLISWDAPAVTVRYYRITYGREVQKYSDLGPLYSYQEFTVPGSKSTATISGLKPGVDYTITVYAVTGSGESPASSTPISINYRTEIDKPSQHHHHHH
2

Proceed to ADX_6727_D10 (Q33D/K85T) (designed binder, Full His6-tagged entry) MGVSDVPRDLEVVAATPTSLLISWDAPAVTVRYYRITYGREVDKYSDLGPLYIYQEFTVPGSKSTATISGLKPGVDYTITVYAVTGSGESPASSTPISINYRTEIDKPSQHHHHHH
1

Further, for ADX_6727_D06 (Y44A/K85S) (designed binder, Full His6-tagged entry) MGVSDVPRDLEVVAATPTSLLISWDAPAVTVRYYRITYGREVQKYSDLGPLYIAQEFTVPGSKSTATISGLKPGVDYTITVYAVTGSGESPASSSPISINYRTEIDKPSQHHHHHH ?
1

Value source: patent US20180258158A1
